Assay: Clearance in Crl:CD/SD IGS, CRJ rat at 3 mg/kg, po by LC-MS/MS analysis
Type: ADME, organism-based
Conditions: in vivo

Smiles input: Cc1cc(N(C)C(N)=O)cc(C)c1CCS(=O)(=O)N1CCC2(CC1)N=C([C@H]1CC[C@H](C)CC1)NC2=O
Measurement unit: mL/min/kg
CL/F: 19

----------
Assay: AUC (infinity) in Crl:CD/SD IGS, CRJ rat at 3 mg/kg, iv by LC-MS/MS analysis
Type: ADME, organism-based
Parameters: dose 3 mg/kg, route intravenous, time infinity
Details: in vivo
Parameter measured: AUC(0-inf) (ng·h/mL)

Smiles input: Cc1cc(N(C)C(N)=O)cc(C)c1CCS(=O)(=O)N1CCC2(CC1)N=C([C@H]1CC[C@H](C)CC1)NC2=O
Readout value: 4820

----------
Target: Parathyroid hormone/parathyroid hormone-related peptide receptor (Homo sapiens)
Sequence (whole entry): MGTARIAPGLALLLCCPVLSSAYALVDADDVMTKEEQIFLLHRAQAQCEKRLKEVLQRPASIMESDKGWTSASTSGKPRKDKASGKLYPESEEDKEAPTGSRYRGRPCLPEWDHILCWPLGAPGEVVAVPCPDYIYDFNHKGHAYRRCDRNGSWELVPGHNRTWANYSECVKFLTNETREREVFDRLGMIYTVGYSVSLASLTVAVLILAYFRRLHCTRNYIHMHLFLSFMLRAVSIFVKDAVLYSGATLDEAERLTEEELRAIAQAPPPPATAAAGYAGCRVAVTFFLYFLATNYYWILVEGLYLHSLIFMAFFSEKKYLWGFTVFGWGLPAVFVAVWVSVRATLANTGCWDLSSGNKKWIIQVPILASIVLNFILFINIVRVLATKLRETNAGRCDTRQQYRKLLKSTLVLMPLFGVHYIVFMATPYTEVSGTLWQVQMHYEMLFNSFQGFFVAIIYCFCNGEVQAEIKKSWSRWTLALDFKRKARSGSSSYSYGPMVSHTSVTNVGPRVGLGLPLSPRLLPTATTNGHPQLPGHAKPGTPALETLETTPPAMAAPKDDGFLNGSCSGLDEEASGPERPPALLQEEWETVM
Test: Agonist activity at human PTHR1 expressed in HKRKB7 cells assessed as accumulation of intracellular cAMP after 20 mins by enzyme immunoassay
Type: functional, cell-based

Smiles input: O=C1NC(C2CCCCC2)=NC12CCN(S(=O)(=O)CCc1ccccc1)CC2
EC20 / µM: 240

Smiles input: Cc1cc(N2CCNC2=O)cc(C)c1CCS(=O)(=O)N1CCC2(CC1)N=C(C1CCCCC1)NC2=O
EC20 / µM: 240

Smiles input: O=C1NC(C2CCCCC2)=NC12CCN(S(=O)(=O)c1cccc3ccccc13)CC2
EC20 / µM: 220

Smiles input: Cc1ccccc1CCS(=O)(=O)N1CCC2(CC1)N=C(C1CCCCC1)NC2=O
EC20 / µM: 30

Smiles input: CC(=O)Nc1ccc(CCS(=O)(=O)N2CCC3(CC2)N=C(C2CCCCC2)NC3=O)c(C)c1
EC20 / µM: 11

----------
Biological target: Parathyroid hormone/parathyroid hormone-related peptide receptor (Homo sapiens)
Sequence (whole entry): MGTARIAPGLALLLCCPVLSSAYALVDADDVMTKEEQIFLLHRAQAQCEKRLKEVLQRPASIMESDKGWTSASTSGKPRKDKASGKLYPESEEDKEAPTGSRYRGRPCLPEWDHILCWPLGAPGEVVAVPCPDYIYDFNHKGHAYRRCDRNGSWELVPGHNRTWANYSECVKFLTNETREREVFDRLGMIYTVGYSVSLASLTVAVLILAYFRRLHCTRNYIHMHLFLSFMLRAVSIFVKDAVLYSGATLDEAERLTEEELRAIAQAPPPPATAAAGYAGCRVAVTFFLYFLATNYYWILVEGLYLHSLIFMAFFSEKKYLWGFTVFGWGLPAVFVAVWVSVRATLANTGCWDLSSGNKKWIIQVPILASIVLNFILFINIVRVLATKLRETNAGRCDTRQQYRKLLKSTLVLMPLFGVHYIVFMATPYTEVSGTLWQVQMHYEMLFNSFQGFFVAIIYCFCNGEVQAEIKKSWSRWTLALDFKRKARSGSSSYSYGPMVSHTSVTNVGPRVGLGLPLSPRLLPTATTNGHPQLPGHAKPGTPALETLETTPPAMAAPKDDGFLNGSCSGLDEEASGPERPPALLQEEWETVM
Experiment: Agonist activity at human PTHR1 expressed in HKRKB7 cells assessed as accumulation of intracellular cAMP at 1 mM after 20 mins by enzyme immunoassay relative to human PTH (1 to 34 residues)
Format: functional, cell-based
Param threshold (20%) applies to Activity; output 1 when value >= threshold, 0 when value < threshold.

Smiles input: O=C1NC(c2ccc(Cl)cc2)=NC12CCN(S(=O)(=O)c1cccc(Cl)c1)CC2
Measured target: Parathyroid hormone/parathyroid hormone-related peptide receptor (Homo sapiens)
Class name: 1
//
Smiles input: O=C1NC(c2ccccc2)=NC12CCN(S(=O)(=O)c1cccc(Cl)c1)CC2
Measured target: Parathyroid hormone/parathyroid hormone-related peptide receptor (Homo sapiens)
Class name: 0
//
Smiles input: O=C(O)c1ccc(C2=NC3(CCN(S(=O)(=O)c4cccc(Cl)c4)CC3)C(=O)N2)cc1
Measured target: Parathyroid hormone/parathyroid hormone-related peptide receptor (Homo sapiens)
Class name: 0
//
Smiles input: O=C1NC(C2CCCCC2)=NC12CCN(S(=O)(=O)c1cccc(Cl)c1)CC2
Measured target: Parathyroid hormone/parathyroid hormone-related peptide receptor (Homo sapiens)
Class name: 1
//
Smiles input: C[C@H]1CC[C@H](C2=NC3(CCN(S(=O)(=O)c4cccc(Cl)c4)CC3)C(=O)N2)CC1
Measured target: Parathyroid hormone/parathyroid hormone-related peptide receptor (Homo sapiens)
Class name: 1
//
Smiles input: O=C1NC(c2ccccc2Cl)=NC12CCN(S(=O)(=O)c1cccc(Cl)c1)CC2
Measured target: Parathyroid hormone/parathyroid hormone-related peptide receptor (Homo sapiens)
Class name: 0
//
Smiles input: O=C1NC(c2ccncc2)=NC12CCN(S(=O)(=O)c1cccc(Cl)c1)CC2
Measured target: Parathyroid hormone/parathyroid hormone-related peptide receptor (Homo sapiens)
Class name: 0
//
Smiles input: O=C1NC(c2ccc(Cl)cc2Cl)=NC12CCN(S(=O)(=O)c1cccc(Cl)c1)CC2
Measured target: Parathyroid hormone/parathyroid hormone-related peptide receptor (Homo sapiens)
Class name: 1
